outcome.measure: melting point

Cc1nn(-c2ccc(Cl)cc2)c(C)c1C=O	131 to 133 °C
COc1cc(OC)c2ncc(C(=O)O)c(O)c2c1	299 to 301 °C
c1nnc(C2CC2)n1C1CC1	74 to 76 °C
COc1ccc(Br)cc1C(=O)O	112 to 114 °C
CCC(=O)Nc1ccc(C)c(N)c1	121 to 123 °C

Kindly note the recorded melting point for Sc1nnc(-c2cccnc2)n1Cc1ccccc1 , which is 179 to 181 °C

Kindly note the recorded melting point for CC1CCCC(C)N1C(=O)c1cc(Cl)ccc1N (centres undefined) , which is 169 to 171 °C

Kindly note the recorded melting point for Cc1cc(Cl)c(Cl)cc1[N+](=O)[O-] , which is 57 to 59 °C

Kindly note the recorded melting point for Nc1ccc(Oc2ccccc2)cn1 , which is 67 to 69 °C

Kindly note the recorded melting point for CN1CCC(Nc2ccccc2N)CC1 , which is 86 to 88 °C

Kindly note the recorded melting point for Cc1ccc(-n2c(S)nc3ccccc32)c(C)c1 , which is 192 to 194 °C

Kindly note the recorded melting point for Nc1ccc(S(=O)(=O)NCc2ccco2)cc1 , which is 180 to 182 °C

Kindly note the recorded melting point for CCCn1c(N)c(NCCOC)c(=O)[nH]c1=O , which is 193 to 195 °C

Every entry's value here was drawn from a melting point compilation (Tetko et al.).
